# Tested on: U2-OS
# method_summary: Inhibition of cell growth, MTT assay, U2-OS
# Format: cell-based
# condition_set: Homo sapiens, U2OS
quantity: IC50 (µM)
I only need the number, in µM, no unit after it.

Query CC(=O)c1ccc(Nc2nc(N)c(C(=O)c3ccccc3[N+](=O)[O-])s2)cc1 [C(24)] yields IC50 of 1.9

The molecule listed as Cc1cc([N+](=O)[O-])sc1C(=O)c1sc(Nc2ccc(N3CCN(C)CC3)cc2)nc1N [C(94)] shows IC50 equal to 3.4

// Cc1c(C(=O)c2sc(Nc3ccc4nc[nH]c4c3)nc2N)sc2ccccc12 [C(8)] : IC50 value = 10

Briefly, IC50 measured for Nc1nc(Nc2ccc(N3CCNCC3)cc2)sc1C(=O)c1c(F)cc(F)cc1F [J(3)] : 2.9

// field: IC50; key: NC(=O)N1CCN(c2ccc(Nc3nc(N)c(C(=O)c4c(F)cccc4F)s3)cc2)CC1 [C(123)] ; value = 7.1

// IC50 lookup, molecule = Nc1nc(Nc2ccc(S(N)(=O)=O)cc2)sc1C(=O)c1c(F)cc(F)cc1F [C(115)] , result: 2.7

IC50 in this record for CN(C)S(=O)(=O)c1ccc(Nc2nc(N)c(C(=O)c3c(F)cccc3F)s2)cc1 [C(109)] : 4.7

Measured IC50, Nc1nc(Nc2ccc(S(N)(=O)=O)cc2)sc1C(=O)c1c(Cl)cc(C(F)(F)F)cc1Cl [C(38)] : 11

The recorded IC50 for Nc1nc(Nc2ccc(N3CCSCC3)cc2)sc1C(=O)c1c(F)cccc1F [C(119)] is 7.8

###

Give Ki for every item shown.
# tested_target: complex of human CDK4 and cyclin D3 (Homo sapiens, UniProt P11802)
# Construct: made in house; host or cells: insect cells, co-infected with baculovirus
# Sequence (P11802 whole entry): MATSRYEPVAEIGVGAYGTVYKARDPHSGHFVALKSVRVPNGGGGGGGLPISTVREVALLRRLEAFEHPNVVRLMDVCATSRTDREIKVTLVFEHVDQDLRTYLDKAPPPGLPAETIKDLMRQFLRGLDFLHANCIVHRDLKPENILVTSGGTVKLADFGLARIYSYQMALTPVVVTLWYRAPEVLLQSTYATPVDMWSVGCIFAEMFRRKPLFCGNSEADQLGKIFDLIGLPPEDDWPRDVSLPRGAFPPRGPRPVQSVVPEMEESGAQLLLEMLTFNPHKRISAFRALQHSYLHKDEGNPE
# Sequence (P30281 whole entry partner): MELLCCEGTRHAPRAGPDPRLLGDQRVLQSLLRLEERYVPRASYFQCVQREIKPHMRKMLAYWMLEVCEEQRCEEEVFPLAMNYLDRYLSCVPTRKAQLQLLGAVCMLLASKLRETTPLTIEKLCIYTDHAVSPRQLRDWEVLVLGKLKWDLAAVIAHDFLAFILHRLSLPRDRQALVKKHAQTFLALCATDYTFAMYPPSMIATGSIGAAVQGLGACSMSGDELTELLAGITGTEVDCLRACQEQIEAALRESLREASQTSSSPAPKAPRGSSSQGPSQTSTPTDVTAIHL
# method_summary: Inhibition of CDK4/cyclin D retinoblastoma kinase activity (D-type cyclin is D3)
# Format: biochemical
# condition_set: superscript a: D-type cyclin is D3; apparent Ki; read-out: Ki CDK 4/D
Quick note: give the figure in nM, leave out the unit.

Ki reported for this compound CNS(=O)(=O)c1ccc(Nc2nc(N)c(C(=O)c3c(F)cccc3F)s2)cc1 : 23

Recorded result, Nc1nc(Nc2ccc3c(c2)OCO3)sc1C(=O)c1ccccc1[N+](=O)[O-] , Ki: 130

Sure, the documented Ki for Nc1nc(Nc2ccc(S(N)(=O)=O)cc2)sc1C(=O)c1c(Cl)cc(Cl)cc1Cl is 13.8

Per the records, this compound ( Nc1nc(Nc2cccnc2)sc1C(=O)c1ccccc1[N+](=O)[O-] ) has Ki equal to 130

# compound Cc1c(C(=O)c2sc(Nc3ccc(N4CCOCC4)cc3)nc2N)ncn1C ; its Ki = 3000

###

# Tested on: MDA-MB-468
# method_summary: Inhibition of cell growth, MTT assay, MDA-MB-468
# Format: cell-based
# condition_set: Homo sapiens; MDA-MB-468, MTT assay
Field 'label' (enum: Condition met / Condition not met). Set to Condition met when IC50 is strictly under 500 nM; else Condition not met.

Q: Field: below-cutoff. Rule: recorded IC50 strictly less than 500 nM. Subject: Nc1nc(Nc2ccc(N3CCNCC3)cc2)sc1C(=O)c1c(F)cccc1F [J(2)]
Result: Condition met

Q: Find out if reported IC50 for Cc1cc(C(=O)c2sc(Nc3ccc(S(N)(=O)=O)cc3)nc2N)c(C)s1 [C(50)] is less than 500 nM
Result: Condition met

Q: Determine whether this compound shows IC50 lower than 500 nM (ties excluded): CN(C)CCN(C)c1ccc(Nc2nc(N)c(C(=O)c3c(F)cccc3F)s2)cc1 [C(110)]
Result: Condition met

Q: Given the entry Cc1ccsc1C(=O)c1sc(Nc2ccc(S(N)(=O)=O)cc2)nc1N [C(48)] , would its reported IC50 be below 500 nM?
Result: Condition met

Q: Threshold test, IC50 < 500 nM: Cc1c(C(=O)c2sc(Nc3ccc4nc[nH]c4c3)nc2N)sc2ccccc12 [C(8)]
Result: Condition not met

Q: Given the entry COc1ccc(Nc2nc(N)c(C(=O)c3ccccc3[N+](=O)[O-])s2)cc1 [A(10)] , would its reported IC50 be below 500 nM?
Result: Condition not met

Q: Decide: IC50 of CN1CCN(c2ccc(Nc3nc(N)c(C(=O)c4c(Cl)cc(C(F)(F)F)cc4Cl)s3)cc2)CC1 [C(81)] strictly below 500 nM?
Result: Condition not met

Q: hey, is IC50 for Nc1nc(Nc2ccc(S(N)(=O)=O)cc2)sc1C(=O)c1c(F)cccc1F [C(85)] lower than 500 nM or not?
Result: Condition met
